Please provide measured pIC50 for the entries that follow.
Biological target: human CYP11B1 (Homo sapiens)
Construct: expressed in transfected cells
Sequence (P15538 25-503): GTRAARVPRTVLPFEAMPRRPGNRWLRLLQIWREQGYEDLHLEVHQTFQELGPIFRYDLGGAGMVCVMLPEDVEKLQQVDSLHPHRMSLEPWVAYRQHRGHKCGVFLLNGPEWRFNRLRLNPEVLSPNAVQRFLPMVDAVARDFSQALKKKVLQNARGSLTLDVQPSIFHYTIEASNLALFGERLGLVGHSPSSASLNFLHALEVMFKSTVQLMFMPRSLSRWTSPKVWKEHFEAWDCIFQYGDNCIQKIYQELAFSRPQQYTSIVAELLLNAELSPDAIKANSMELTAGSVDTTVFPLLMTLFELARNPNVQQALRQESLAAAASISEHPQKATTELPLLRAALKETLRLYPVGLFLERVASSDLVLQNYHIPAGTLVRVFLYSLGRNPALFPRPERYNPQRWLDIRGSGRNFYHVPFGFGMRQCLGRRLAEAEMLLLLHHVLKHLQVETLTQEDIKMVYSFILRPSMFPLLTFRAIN
Experiment: IC50 vs CYP11B1 by measurement of cortisol synthesis in V79 cells
Assay type: cell-based
Conditions: V79 cells expressing human CYP11B1, 1500 nM RSS, cortisol HTRF
Reminder that pIC50 is minus the log10 of a molar concentration.

# input Given the entry C[C@@H](c1ccccc1-c1ccccc1OC(F)(F)F)n1cncc1C(=O)N1CCC2NCCO[C@@H]2C1 (stereo partly shown) [Compound 42] , report its measured pIC50.
# output 5.25

# input Do the same for C[C@@H](c1ccccc1-c1ccc(F)cc1)n1cncc1C(=O)N1CCC(N2CCC[C@H](O)C2)CC1 [Compound 8] please
# output 4.68

# input Do the same for C[C@@H](c1ccccc1-c1ccc(F)cc1)n1cncc1C(=O)N1CCC(N2CCC(F)C(O)C2)CC1 (stereo partly shown) [Compound 19] please
# output 4.49

# input Do the same for C[C@@H](c1ccccc1-c1ccc(F)cc1)n1cncc1C(=O)N1CCC(N2C[C@H](O)[C@@H](F)C2)CC1 [Compound 16] please
# output 4.99

###

Target: CYP2C19 (Homo sapiens)
Construct: 0.1 mg/mL protein human liver microsomes (BD Gentest); tissue BD Gentest; host or cells: human liver microsomes
Sequence (P33261 whole entry): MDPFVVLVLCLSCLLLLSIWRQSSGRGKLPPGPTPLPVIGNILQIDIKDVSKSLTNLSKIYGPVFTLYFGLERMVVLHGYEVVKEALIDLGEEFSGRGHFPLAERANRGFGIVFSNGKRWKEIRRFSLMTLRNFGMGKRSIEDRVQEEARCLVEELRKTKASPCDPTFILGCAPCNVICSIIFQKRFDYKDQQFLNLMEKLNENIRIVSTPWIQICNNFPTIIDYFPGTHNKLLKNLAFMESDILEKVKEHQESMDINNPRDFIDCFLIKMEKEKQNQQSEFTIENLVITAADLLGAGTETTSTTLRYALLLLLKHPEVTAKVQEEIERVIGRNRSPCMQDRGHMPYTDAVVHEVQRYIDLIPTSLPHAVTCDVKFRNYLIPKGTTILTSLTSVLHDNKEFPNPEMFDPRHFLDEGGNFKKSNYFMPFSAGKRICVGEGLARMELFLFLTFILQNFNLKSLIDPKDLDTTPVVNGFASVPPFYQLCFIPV
Experiment: Cocktail assay for CYPs in human liver microsomes, mephenytoin 4′-hydroxylation (2C19)
Assay type: biochemical
Conditions: 30 μM mephenytoin, 10 min at 37° C.
Protocol: This assay was performed in a standard 96-well plate design. IC50 values were calculated from the percent inhibition observed for each test compound at 6 concentrations (for example, 0.0032, 0.016, 0.08, 0.4, 2 and 10 μM). […] The production of the metabolite of each probe substrate was determined after incubation for 10 min at 37° C. […] The peak area ratio of the analyte to the internal standard was used to quantify the metabolite. […]
observed_property: IC50

# input Given the entry "C[C@@H](c1ccccc1-c1ccc(F)cc1)n1cncc1C(=O)N1CCn2c(nnc2C2CC2)C1" , report its measured IC50.
# output 7.57 µM

# input Do the same for C[C@@H](c1ccccc1-c1cccc2c1OCC2)n1cncc1C(=O)N1CCC2NCCO[C@@H]2C1 (stereo partly shown) please
# output > 10 µM

# input Do the same for "C[C@@H](c1ccccc1-c1ccc(F)cc1)n1cncc1C(=O)N1CCC(N2CCn3c(nnc3C(F)(F)F)C2)CC1" please
# output 6.29 µM

# input Do the same for "C[C@@H](c1ccccc1-c1ccc(F)cc1)n1cncc1C(=O)N1CCC(N2CCNC(=O)C2)CC1" please
# output > 10 µM

# input Do the same for C[C@@H](c1ccccc1-c1ccc(F)cc1)n1cncc1C(=O)N1CCCC(N2CCC(C)(O)CC2)CC1 (single isomer, unassigned) please
# output > 10 µM

# input Do the same for "C[C@@H](c1ccccc1-c1ccc(F)cc1)n1cncc1C(=O)N1CCC[C@@H]2OCCN[C@H]2C1" please
# output > 10 µM

# input Do the same for C[C@@H](c1ccccc1-c1ccc(F)cc1F)n1cncc1C(=O)N1CCC2NCCO[C@@H]2C1 (stereo partly shown) please
# output > 10 µM

###

Reported pIC50 values, CYP2D6 (Homo sapiens, UniProt P10635).
Reminder that pIC50 is minus the log10 of a molar concentration.

# input Report pIC50 for CO[C@H]1CN(C2CCN(C(=O)c3cncn3[C@@H](C)c3ccccc3-c3ccc(F)cc3)CC2)CC[C@@H]1O [Compound 10] tested on CYP2D6 (Homo sapiens, UniProt P10635).
# Sequence (P10635 whole entry): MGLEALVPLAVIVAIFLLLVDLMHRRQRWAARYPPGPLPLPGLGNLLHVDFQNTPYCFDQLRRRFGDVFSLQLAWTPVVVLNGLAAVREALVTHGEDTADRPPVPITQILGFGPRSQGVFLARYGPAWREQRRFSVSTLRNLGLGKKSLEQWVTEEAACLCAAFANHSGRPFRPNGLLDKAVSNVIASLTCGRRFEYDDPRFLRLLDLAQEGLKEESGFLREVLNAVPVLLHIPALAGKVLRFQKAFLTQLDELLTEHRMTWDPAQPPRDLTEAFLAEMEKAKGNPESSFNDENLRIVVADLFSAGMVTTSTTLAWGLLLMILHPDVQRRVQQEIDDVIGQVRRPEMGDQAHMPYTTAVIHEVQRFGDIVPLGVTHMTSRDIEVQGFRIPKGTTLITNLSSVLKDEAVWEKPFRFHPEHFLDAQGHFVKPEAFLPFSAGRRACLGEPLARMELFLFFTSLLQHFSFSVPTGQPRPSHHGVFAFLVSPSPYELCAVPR
# output 5.23

# input Do the same for CC(C)c1ccccc1[C@H](C)n1cncc1C(=O)N1CCC2NCCO[C@@H]2C1 (stereo partly shown) [Compound 47] please
# output 5.03

# input Do the same for C[C@@H](c1ccccc1-c1ccc(F)cc1)n1cncc1C(=O)N1CC[C@@H](N2CCOCC2)[C@@H](F)C1 [Compound 29] please
# output 5.21

###

Molecular target: CYP2D6 (Homo sapiens, UniProt P10635)
IC50 strictly under 8 µM means satisfied; at 8 µM or over means not satisfied.

# input Is 8 µM strictly greater than the compound's reported IC50? compound: C[C@@H](c1ccccc1-c1ccc(F)cc1)n1cncc1C(=O)N1CCCC(N2CCC(C)(O)CC2)CC1 (single isomer, unassigned)
# output satisfied

# input Do the same for "C[C@@H]1CN(C2CCN(C(=O)c3cncn3[C@@H](C)c3ccccc3-c3ccc(F)cc3)CC2)CC[C@H]1O" please
# output not satisfied

# input Do the same for C[C@@H](c1ccccc1-c1ccc(F)cc1)n1cncc1C(=O)N1CCC(N2CCC(F)C(O)C2)CC1 (some centres unmarked) please
# output not satisfied

# input Do the same for "C[C@@H]1CN(C2CCN(C(=O)c3cncn3[C@@H](C)c3ccccc3-c3ccc(F)cc3)CC2)CC[C@@H]1O" please
# output not satisfied

# input Do the same for "C[C@@H](c1ccccc1-c1ccc(F)cc1)n1cncc1C(=O)N1CCC(N2CCC[C@H](O)C2)CC1" please
# output not satisfied

# input Do the same for "C[C@H]1CN(C(=O)c2cncn2[C@@H](C)c2ccccc2-c2ccc(F)cc2)CC[C@H]1N1CCNC(=O)C1" please
# output not satisfied

# input Do the same for C[C@@H](c1ccccc1-c1cc(F)cc(F)c1)n1cncc1C(=O)N1CCC2NCCO[C@@H]2C1 (some centres unmarked) please
# output not satisfied

# input Do the same for "CO[C@@H]1CN(C2CCN(C(=O)c3cncn3[C@@H](C)c3ccccc3-c3ccc(F)cc3)CC2)CC[C@@H]1O" please
# output satisfied

# input Do the same for C[C@@H](c1ccccc1-c1ccc(F)cc1F)n1cncc1C(=O)N1CCC2NCCO[C@@H]2C1 (some centres unmarked) please
# output not satisfied

# input Do the same for C[C@@H](c1ccccc1-c1ccc(F)cc1)n1cncc1C(=O)N1CCC(N2CCCC(C)(O)C2)CC1 (some centres unmarked) please
# output satisfied

# input Do the same for C[C@@H](c1ccccc1C1CCCC1)n1cncc1C(=O)N1CCC2NCCO[C@@H]2C1 (some centres unmarked) please
# output not satisfied

# input Do the same for "C[C@H]1CN(C(=O)c2cncn2[C@@H](C)c2ccccc2-c2ccc(F)cc2)CC[C@H]1N1CC[C@@H](O)C1" please
# output not satisfied

# input Do the same for "C[C@@H](c1ccccc1-c1ccc(F)cc1)n1cncc1C(=O)N1CCC(N2CCNC(=O)C2)CC1" please
# output not satisfied

# input Do the same for C[C@@H](c1ccccc1C(C)(C)F)n1cncc1C(=O)N1CCC2NCCO[C@@H]2C1 (some centres unmarked) please
# output satisfied

# input Do the same for "C[C@@H](c1ccccc1-c1ccc(F)cc1)n1cncc1C(=O)N1CCC(N2C[C@@H](O)[C@H](F)C2)CC1" please
# output not satisfied

# input Do the same for "C[C@@H](c1ccccc1-c1ccc(F)cc1)n1cncc1C(=O)N1CC[C@@H](N2CCNC(=O)C2)[C@@H](F)C1" please
# output not satisfied

###

Molecular target: human CYP11B1 (Homo sapiens)
Construct: expressed in transfected cells
Experiment: IC50 vs CYP11B1 by measurement of cortisol synthesis in V79 cells
Type: cell-based
Conditions: V79 cells expressing human CYP11B1, 1500 nM RSS, cortisol HTRF
Please provide measured pIC50 for the entries that follow.
Reminder that pIC50 is minus the log10 of a molar concentration.

# input Given the entry C[C@@H](c1ccccc1-c1cc(F)cc(F)c1)n1cncc1C(=O)N1CCC2NCCO[C@@H]2C1 (stereo partly shown) , report its measured pIC50.
# output 4.70

# input Do the same for COCc1ccccc1-c1ccccc1[C@H](C)n1cncc1C(=O)N1CCC2NCCO[C@@H]2C1 (stereo partly shown) please
# output 4.69

# input Do the same for C[C@@H](c1ccccc1-c1ccc(F)cc1)n1cncc1C(=O)N1CCCC(N2CCC(C)(O)CC2)CC1 (single isomer, unassigned) [Compound 3b] please
# output 4.90

# input Do the same for "C[C@@H](c1ccccc1-c1ccc(F)cc1)n1cncc1C(=O)N1CCC(N2C[C@@H](O)[C@H](F)C2)CC1" please
# output 4.69

# input Do the same for "C[C@H]1CN(C(=O)c2cncn2[C@@H](C)c2ccccc2-c2ccc(F)cc2)CC[C@H]1N1CC[C@@H](O)C1" please
# output 4.65

# input Do the same for "C[C@@H](c1ccccc1-c1ccc(F)cc1)n1cncc1C(=O)N1CCn2c(nnc2C2CC2)C1" please
# output 4.37

# input Do the same for "C[C@@H](c1ccccc1-c1ccc(F)cc1)n1cncc1C(=O)N1CCC(N2CCC(O)CC2)CC1" please
# output 4.48

# input Do the same for C[C@@H](c1ccccc1-c1ccc(F)cc1)n1cncc1C(=O)N1CCCC(N2CCC(C)(O)CC2)CC1 (single isomer, unassigned) [Compound 3a] please
# output 4.43

# input Do the same for "C[C@@H](c1ccccc1-c1ccc(F)cc1)n1cncc1C(=O)N1CCC(N2CC[C@@H](O)[C@H](F)C2)CC1" please
# output 4.66

# input Do the same for "C[C@@H](c1ccccc1-c1ccc(F)cc1)n1cncc1C(=O)N1CCC(N2CC[C@H](O)[C@@H](F)C2)CC1" please
# output 4.64

# input Do the same for C[C@@H](c1ccccc1-c1cccc2c1OCC2)n1cncc1C(=O)N1CCC2NCCO[C@@H]2C1 (stereo partly shown) please
# output 4.52

# input Do the same for C[C@@H](c1ccccc1-c1ccc(F)cc1)n1cncc1C(=O)N1CCC(N2CCCC(C)(O)C2)CC1 (stereo partly shown) please
# output 4.60

# input Do the same for "CCc1nnc2n1CCN(C(=O)c1cncn1[C@@H](C)c1ccccc1-c1ccc(F)cc1)C2" please
# output 4.34

# input Do the same for C[C@@H](c1ccccc1C1CCCC1)n1cncc1C(=O)N1CCC2NCCO[C@@H]2C1 (stereo partly shown) please
# output 4.95

# input Do the same for CCOc1ncccc1-c1ccccc1[C@H](C)n1cncc1C(=O)N1CCC2NCCO[C@@H]2C1 (stereo partly shown) please
# output 4.48

# input Do the same for COc1ccccc1-c1ccccc1[C@H](C)n1cncc1C(=O)N1CCC2NCCO[C@@H]2C1 (stereo partly shown) please
# output 4.91

# input Do the same for "CO[C@H]1CN(C2CCN(C(=O)c3cncn3[C@@H](C)c3ccccc3-c3ccc(F)cc3)CC2)CC[C@H]1O" please
# output 4.57

# input Do the same for "C[C@@H](c1ccccc1-c1ccc(F)cc1)n1cncc1C(=O)N1CCC[C@H]2OCCN[C@@H]2C1" please
# output 5.41

# input Do the same for "CO[C@@H]1CN(C2CCN(C(=O)c3cncn3[C@@H](C)c3ccccc3-c3ccc(F)cc3)CC2)C[C@H]1O" please
# output 4.58

# input Do the same for C[C@@H](c1ccccc1-c1ccc(Cl)nc1)n1cncc1C(=O)N1CCC2NCCO[C@@H]2C1 (stereo partly shown) please
# output 4.37

# input Do the same for "C[C@@H](c1ccccc1-c1ccc(F)cc1)n1cncc1C(=O)N1CCC(N2CCn3c(nnc3C(F)(F)F)C2)CC1" please
# output 4.84

# input Do the same for "C[C@@H](c1ccccc1-c1ccc(F)cc1)n1cncc1C(=O)N1CCC(N2CCn3ncnc3C2)CC1" please
# output 4.95

# input Do the same for "C[C@H]1CN(C(=O)c2cncn2[C@@H](C)c2ccccc2-c2ccc(F)cc2)CC[C@H]1N1CCNC(=O)C1" please
# output 4.55
